# reported IC50; entries follow
# Tested system: c-Met (cytoplasmic domain) (Homo sapiens)
# Construct: 10 ng/mL c-Met (cytoplasmic domain, Invitrogen Corporation #PV3143); purchased Invitrogen Corporation PV3143
# Sequence (P08581 956-1390 limits assumed): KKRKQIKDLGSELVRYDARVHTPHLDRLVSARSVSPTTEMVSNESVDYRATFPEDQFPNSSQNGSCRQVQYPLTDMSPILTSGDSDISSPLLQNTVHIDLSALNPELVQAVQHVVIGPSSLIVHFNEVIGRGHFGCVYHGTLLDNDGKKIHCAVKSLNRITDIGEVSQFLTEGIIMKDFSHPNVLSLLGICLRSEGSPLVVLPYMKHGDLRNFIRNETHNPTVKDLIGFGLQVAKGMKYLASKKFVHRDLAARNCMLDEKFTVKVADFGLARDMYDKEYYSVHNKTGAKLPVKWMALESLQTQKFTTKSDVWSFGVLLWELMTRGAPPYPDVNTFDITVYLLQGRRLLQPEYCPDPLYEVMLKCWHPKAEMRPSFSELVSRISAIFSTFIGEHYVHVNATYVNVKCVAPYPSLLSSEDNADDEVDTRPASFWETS
# Assay details: c-Met Kinase Assay (same methods as for ALK, with modifications)
# Assay type: biochemical
# Experimental setup: 1 μM ATP (Km level), 10 ng/mL c-Met; read-out: cMet Activity (c-Met kinase inhibition, IC50 class)

Compound: COc1cc2c(cc1Nc1ncc(Cl)c(Nc3ccc(N(C)C)cc3OC)n1)CCN(Cc1nccn1C)CC2
IC50: > 10000 nM

Compound: CCCCNC(=O)c1ccccc1Nc1nc(Nc2ccc3c(c2)CCN(CCOC)CC3)ncc1Cl
IC50: 100 to 1000 nM

Compound: COCCN1CCc2cc(Nc3ncc(Cl)c(Nc4ccccc4-n4cccn4)n3)c(OC)cc2CC1
IC50: > 10000 nM

Compound: CNC(=O)c1cccc(O)c1Nc1nc(Nc2ccc3c(c2)CCN(CCOC)CC3)ncc1Cl
IC50: 100 to 1000 nM

Compound: COCCN1CCc2ccc(Nc3ncc(Cl)c(NC4CCCCC4)n3)cc2CC1
IC50: 100 to 1000 nM

Compound: OC1CCc2ccc(Nc3ncc(Cl)c(Nc4ccccc4-n4cccn4)n3)cc2CC1 (stereo not drawn)
IC50: 100 to 1000 nM

Compound: C#CCNC(=O)c1cccc(F)c1Nc1nc(Nc2ccc3c(c2)OCCCN3C(=O)OC(C)C)ncc1Cl
IC50: 100 to 1000 nM

Compound: COc1cc2c(cc1Nc1ncc(Cl)c(N[C@@H]3CCCC[C@H]3NS(C)(=O)=O)n1)CCC(NCCO)CC2 (single isomer, unassigned) [Example 1094]
IC50: > 10000 nM

Compound: COCCOc1ccc(Nc2nc(Nc3cc4c(cc3OC)CCN(CC(=O)N(C)C)CC4)ncc2Cl)c(OC)c1
IC50: > 10000 nM

Compound: CNC(=O)c1ccccc1Nc1nc(Nc2cc3c(cc2OC)CCC(NCCOC)CC3)ncc1Cl (stereo not drawn)
IC50: 100 to 1000 nM

Compound: COc1cc(N2CCOCC2)ccc1Nc1nc(Nc2ccc3c(c2)CCN(CC(=O)N(C)C)CC3)ncc1Cl
IC50: 1000 to 10000 nM

Compound: COc1cc2c(cc1Nc1ncc(Cl)c(Nc3ccccc3S(=O)(=O)N3CC[C@@H](O)C3)n1)CCN(CC(=O)N(C)C)CC2
IC50: 1000 to 10000 nM

Compound: COc1cccnc1-c1ccccc1Nc1nc(Nc2ccc3c(c2)CCC(N2CCOCC2)CC3)ncc1Cl (stereo not drawn)
IC50: 1000 to 10000 nM

Compound: COc1cc2c(cc1Nc1ncc(Cl)c(Nc3cc(C#N)ccc3OC)n1)CCN(CC(N)=O)CC2
IC50: > 10000 nM

Compound: COc1cc2c(cc1Nc1ncc(Cl)c(Nc3ccccc3S(=O)(=O)N(C)C)n1)CCNC(=O)C2
IC50: 1000 to 10000 nM
